MEASUREMENT DESCRIPTION: blockers of DNA damage checkpoint Chk1 activation – imaging, HeLa, hydroxyurea, phospho-Chk1 nuclear intensity, primary screen (AID 1187); note: test concentration not given here
TEST CONDITIONS: hydroxyurea-induced phospho-Chk1 immunofluorescence imaging, higher = more signal
Think of -0.03 as a floor: if z-score stands on it or above, it is True; beneath it, False.

>>> qualitative_label("O=C(NCC(F)(F)F)[C@@H]1c2ccccc2C(=O)N(Cc2ccccc2)[C@H]1c1ccc(CO)cc1")
"False"
>>> qualitative_label("C=CCOC(=O)[C@@H]1[C@H]2C(=O)O[C@H](c3ccccc3)[C@H](c3ccccc3)N2[C@H](c2ccc(OCCOC(=O)[C@H]3C[C@H]4C(=O)N[C@@H](CC(C)C)C(=O)N4[C@H]3c3cccc(OCCO)c3)cc2)[C@@]12C(=O)Nc1ccc(I)cc12")
"True"
>>> qualitative_label("C=CCOC(=O)[C@@H]1[C@H]2C(=O)O[C@H](c3ccccc3)[C@H](c3ccccc3)N2[C@H](c2ccc(OCCOC(=O)[C@H]3C[C@H]4C(=O)N[C@@H](Cc5ccccc5)C(=O)N4[C@H]3c3ccc(O)cc3)cc2)[C@@]12C(=O)Nc1ccc(I)cc12")
"False"

Challenge: Determine whether this compound has z-score no lower than -0.03: Oc1ccc2cc[n+](Cc3cccc(OC(F)(F)F)c3)cc2c1
Response given: False

Challenge: Tell me whether z-score is at least -0.03 here: C=CCC(OC(C)=O)[C@@H]1[C@@H](N(Cc2ccc(-c3ccccc3)cc2)C(=O)c2ccc(C)cc2)c2cc(OCCCO)ccc2N1C(=O)c1ccc2ccccc2n1 (stereo partly drawn)
Response given: False

Challenge: For this compound, is measured z-score -0.03 or higher? Cc1ccccc1/C=C/C=O
Response given: True
